- test system: NV 3CLpro (codon-optimized, full-length, N-terminal 6 His, recombinant) (Norovirus)
- Sequence (Q83883 1101-1281): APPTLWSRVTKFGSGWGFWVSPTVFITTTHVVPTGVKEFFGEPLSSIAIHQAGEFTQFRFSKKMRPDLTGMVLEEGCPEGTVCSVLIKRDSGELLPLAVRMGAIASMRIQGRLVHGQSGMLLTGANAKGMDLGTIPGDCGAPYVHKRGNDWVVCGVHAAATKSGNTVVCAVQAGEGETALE
- Assay type: biochemical, Norwalk virus (human norovirus GI)
result type: IC50 (nM)
// units = nM; emit number, no label

**Query** What does the record list as IC50 for CC(C)C[C@H](NC(=O)OCc1ccccc1)C(=O)N[C@H](C=O)C[C@@H]1CCNC1=O ?
**Result** 640
